# TARGET_ENTITY: human PAD4 (Homo sapiens)
# Construct: human PAD4 (NM_012387), A2-P663, was PCR amplified; His-SUMO (N, cleaved yes)
# Sequence (Q9UM07 2-663): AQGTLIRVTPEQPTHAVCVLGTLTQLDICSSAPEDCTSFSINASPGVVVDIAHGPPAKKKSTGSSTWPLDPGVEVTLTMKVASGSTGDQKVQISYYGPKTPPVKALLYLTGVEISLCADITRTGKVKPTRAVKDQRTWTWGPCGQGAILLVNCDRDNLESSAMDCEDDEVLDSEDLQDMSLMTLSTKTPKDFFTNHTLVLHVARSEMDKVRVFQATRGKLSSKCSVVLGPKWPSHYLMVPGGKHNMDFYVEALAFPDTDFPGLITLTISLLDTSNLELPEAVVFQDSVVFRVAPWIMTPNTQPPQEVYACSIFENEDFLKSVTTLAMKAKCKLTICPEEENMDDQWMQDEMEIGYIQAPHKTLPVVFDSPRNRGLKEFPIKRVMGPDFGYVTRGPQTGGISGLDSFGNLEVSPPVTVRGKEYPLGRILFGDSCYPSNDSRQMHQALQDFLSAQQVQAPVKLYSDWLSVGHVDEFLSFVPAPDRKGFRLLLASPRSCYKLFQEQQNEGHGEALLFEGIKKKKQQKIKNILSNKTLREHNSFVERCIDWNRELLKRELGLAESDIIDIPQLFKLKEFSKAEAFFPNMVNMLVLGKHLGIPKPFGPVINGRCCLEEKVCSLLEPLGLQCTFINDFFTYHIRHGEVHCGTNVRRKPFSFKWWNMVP
# EXPERIMENTAL_PROTOCOL: In vitro PAD4 BAEE biochemical assay
# CONDITIONS_USED: BAEE substrate 3 mM, 5 nM PAD4, 2 mM calcium chloride; geometric mean of multiple experiments
pIC50: −log10 of the molar value.
A collection of compounds and their measured pIC50
ASSAY_ENDPOINT: pIC50

{"columns": ["COMPOUND", "ASSAY_ENDPOINT", "RESULT_VALUE"],
 "data": [
  ["COc1cc(C(=O)N2[C@H]3CC[C@@H]2[C@H](N)C3)cc2nc(-c3cc4ccc5nc4n3CCCCCCCOc3ncccc3-5)n(C)c12", "pIC50", 6.39],
  ["COc1cc(C(=O)N2CCC[C@@H](N)[C@H]2C)cc2nc(-c3cc4ccc5nc4n3CCCCCc3nc4ccsc4cc3C(=O)N[C@@H]5C)n(C)c12", "pIC50", 7.62],
  ["COc1cc(C(=O)N2CCC[C@@H](N)C2)cc2nc(-c3cc4ccc5nc4n3CCCCCCC(=O)Nc3ccncc3-5)n(C)c12", "pIC50", 5.30],
  ["C[C@H]1NC(=O)[C@@H]2C[C@]2(F)CCCCCn2c(-c3nc4cc(C(=O)N5C[C@H](N)[C@@H]6CC[C@H]5C6)cc(F)c4n3C3CC3)cc3ccc1nc32", "pIC50", 7.62],
  ["COc1cc(C(=O)N2C[C@H](N)[C@@H]3CC[C@H]2C3)cc2nc(-c3cc4ccc5nc4n3CCCCC[C@H]3[C@H](C(=O)N[C@@H]5C)C3(F)F)c(C)n12", "pIC50", 7.74],
  ["C[C@H]1NC(=O)[C@@H]2C[C@@]2(F)CCCCCn2c(-c3nc4cc(C(=O)N5C[C@H](N)[C@@H]6CC[C@H]5C6)cc(OC(F)(F)F)c4n3C)cc3ccc1nc32", "pIC50", 7.72],
  ["COc1cc(C(=O)N2CC[C@@H](OC)[C@@H](N)C2)cc2nc(-c3cc4ccc5nc4n3CCC/C=C/c3ccc(Cl)nc3C(=O)N[C@@H]5C)n(C)c12", "pIC50", 7.14],
  ["[2H]C([2H])([2H])O[C@@H]1CCN(C(=O)c2cc(OC)c3c(c2)nc(-c2cc4ccc5nc4n2CC(F)(F)CCC[C@@H]2C[C@H]2C(=O)N[C@@H]5C)n3C)C[C@@H]1N", "pIC50", 7.51],
  ["CO[C@@H]1CCN(C(=O)c2cc(F)c3c(c2)nc(-c2cc4ccc5nc4n2CC(F)(F)CCC[C@]2(F)C[C@H]2C(=O)N[C@@H]5C)n3C2CC2)C[C@@H]1N", "pIC50", 7.66],
  ["C[C@H]1NC(=O)[C@@H]2C[C@H]2CCCC(F)(F)Cn2c(-c3nc4cc(C(=O)N5C[C@H](N)[C@@H]6CC[C@H]5C6)cc(F)c4n3[C@H]3C[C@@H]3C(F)F)cc3ccc1nc32 (single isomer, unassigned)", "pIC50", 7.28],
  ["COc1cc(C(=O)N2C[C@H](N)[C@@H]3CC[C@H]2C3)cc2nc(-c3cc4ccc5nc4n3CCCCCC[C@H](c3ccccn3)C(=O)N[C@@H]5C)n(C)c12", "pIC50", 7.57],
  ["C[C@H]1NC(=O)C(C)(C)CCCCCCn2c(-c3nc4cc(C(=O)N5CCC[C@@H](N)C5)ccc4n3C3CC3)cc3ccc1nc32", "pIC50", 7.27],
  ["COc1cc(C(=O)N2CCC[C@@H](N)C2)cc2nc(-c3cc4ccc5nc4n3CCCCCCNC(=O)c3c-5ccnc3F)n(C)c12", "pIC50", 6.71],
  ["COc1cc(C(=O)N2CCC[C@@H](N)C2)cc2nc(-c3cc4ccc5cc4n3CCCCCCC(C)(C)C(=O)Nc3ccccc3-5)n(C)c12", "pIC50", 5.86],
  ["COc1cc(C(=O)N[C@H]2CNCC[C@H]2OC)cc2nc(-c3cc4ccc5nc4n3CCCCCCC(C)(C)C(=O)N[C@@H]5C)n(C)c12", "pIC50", 5.09],
  ["C[C@H]1NC(=O)c2ccncc2CCCCCn2c(-c3nc4cc(C(=O)N[C@H]5CNCC[C@@H]5F)c(F)cc4n3C)cc3ccc1nc32", "pIC50", 7.42],
  ["COc1cc(C(=O)N2CC[C@@H](OC)[C@@H](N)C2)cc2nc(-c3cc4ccc5nc4n3CC(F)(F)CCCC(C)(C)C(=O)N[C@@H]5C)n(C)c12", "pIC50", 6.79],
  ["COc1cc(C(=O)N2CC[C@@H](OC)[C@@H](N)C2)cc2nc(-c3cc4ccc5nc4n3CCCCCCC(c3ccccn3)C(=O)N[C@@H]5C)n(C)c12 (stereo partly shown)", "pIC50", 7.36],
  ["C[C@H]1NC(=O)[C@@](F)(c2cccc(Cl)n2)CCCCCCn2c(-c3nc4cc(C(=O)N5C[C@H](N)[C@@H]6CC[C@H]5C6)cc(F)c4n3C3CC3)cc3ccc1nc32", "pIC50", 6.87],
  ["CO[C@H]1C[C@@H]1n1c(-c2cc3ccc4nc3n2CC(F)(F)CCC[C@@H]2C[C@H]2C(=O)N[C@@H]4C)nc2cc(C(=O)N3C[C@H]4CC[C@@H]3[C@@H]4N)cc(F)c21", "pIC50", 7.57],
  ["COc1cc(C(=O)N2[C@H]3CC[C@@H]2[C@H](N)C3)cc2nc(-c3cc4ccc5nc4n3CCCCCCOc3ncccc3-5)n(C)c12", "pIC50", 6.69],
  ["COc1cc(C(=O)N2CCC[C@@H](N)C2)cc2nc(-c3cc4ccc5nc4n3CCCCCCCCC(=O)N3CCC[C@H]53)n(C)c12", "pIC50", 7.62]
]}

---

# TARGET_ENTITY: human PAD4 (Homo sapiens)
# Construct: human PAD4 (NM_012387), A2-P663, was PCR amplified; His-SUMO (N, cleaved yes)
# EXPERIMENTAL_PROTOCOL: In vitro PAD4 BAEE biochemical assay
# CONDITIONS_USED: BAEE substrate 3 mM, 5 nM PAD4, 2 mM calcium chloride; geometric mean of multiple experiments
pIC50: −log10 of the molar value.
Output fulfilled for pIC50 not less than 7; output not fulfilled otherwise.

{"columns": ["MOL_SMILES", "TARGET_ENTITY", "CLASS_ASSIGNMENT"],
 "data": [
  ["CO[C@@H]1CCN(C(=O)c2ccc3c(c2)nc(-c2cc4ccc5nc4n2CCCCC[C@@H]2C[C@H]2C(=O)N[C@@H]5C)n3C2CC2)C[C@@H]1N", "human PAD4 (Homo sapiens)", "fulfilled"],
  ["COc1cc(C(=O)N2C[C@H](N)[C@@H]3CC[C@H]2C3)cc2nc(-c3cc4ccc5nc4n3CCCCCc3nc(Cl)ccc3C(=O)N[C@@H]5C)c(C3CC3)n12", "human PAD4 (Homo sapiens)", "fulfilled"],
  ["C[C@H]1NC(=O)[C@@H]2C[C@H]2CCCCCn2c(-c3nc4cc(C(=O)N[C@H]5CNCC[C@@H]5F)cnc4n3C)cc3ccc1nc32", "human PAD4 (Homo sapiens)", "fulfilled"],
  ["COc1cc(C(=O)N2CC[C@@H](OC)[C@@H](N)C2)cc2nc(-c3cc4ccc5nc4n3CCCCCC(C)(C)C(=O)N[C@@H]5C)n(C)c12", "human PAD4 (Homo sapiens)", "not fulfilled"]
]}

---

# TARGET_ENTITY: human PAD4 (Homo sapiens)
# Construct: human PAD4 (NM_012387), A2-P663, was PCR amplified; His-SUMO (N, cleaved yes)
# EXPERIMENTAL_PROTOCOL: In vitro PAD4 BAEE biochemical assay
# CONDITIONS_USED: BAEE substrate 3 mM, 5 nM PAD4, 2 mM calcium chloride; geometric mean of multiple experiments
pIC50: −log10 of the molar value.
ASSAY_ENDPOINT: pIC50

{"columns": ["MOL_SMILES", "ASSAY_ENDPOINT", "RESULT_VALUE"],
 "data": [
  ["COc1cc(C(=O)N[C@H]2CNC[C@H](C)C2)cc2nc(-c3cc4ccc5nc4n3CCCCCCC(C)(C)C(=O)N[C@@H]5C)n(C)c12", "pIC50", 5.89],
  ["COc1cc(C(=O)N[C@H]2CNC[C@@H]2F)cc2nc(-c3cc4ccc5nc4n3CCCCCCC(C)(C)C(=O)N[C@@H]5C)n(C)c12", "pIC50", 5.19],
  ["COc1cc(C(=O)N2[C@H]3CC[C@@H]2[C@H](N)C3)cc2nc(-c3cc4ccc5nc4n3CCCCCCC3(CC3)C(=O)N[C@@H]5C)n(C)c12", "pIC50", 7.09]
]}
